- STUDY_SYSTEM: CCL17 chemokine (Homo sapiens, UniProt Q92583)
- Construct: purchased; host or cells: HEK 293 cells stably transfected with EGFP-CCR4, transiently transfected with Gqi5
- Sequence (Q92583 24-94): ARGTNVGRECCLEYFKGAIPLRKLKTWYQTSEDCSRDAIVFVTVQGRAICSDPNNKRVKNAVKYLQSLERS
- ASSAY_SUMMARY: Inhibition of calcium response induced by CCL17 in HEK 293 cells expressing CCR4 (Indo-1)
- Assay type: cell-based
- COND: HEK293, read-out: Inhibition of calcium responses induced by CCL17 (%)
PROPERTY_MEASURED: inhibition at 10 µM

COMPOUND | RECORDED_VALUE
CC(C)Cn1cnc2c1c(=O)n(C)c(=O)n2C | 36%
C=CCn1cnc2c1c(=O)n(C)c(=O)n2C | 19%
CCCCn1cnc2c1c(=O)n(C)c(=O)n2C | 40%
Cn1c(=O)c2[nH]cnc2n(C)c1=O [Theophylline, reference compound] | 0%

---

Quick reference for inhibition at 10 µM among some compounds
- STUDY_SYSTEM: CCL17 chemokine (Homo sapiens, UniProt Q92583)
- Construct: purchased; host or cells: HEK 293 cells stably transfected with EGFP-CCR4, transiently transfected with Gqi5
- ASSAY_SUMMARY: Inhibition of calcium response induced by CCL17 in HEK 293 cells expressing CCR4 (Indo-1)
- Type: cell-based
- COND: HEK293; molecules at 10 μm; CCL17 5 nM; HEK 293 cells expressing CCR4; read-out: Inhibition of calcium responses induced by CCL17 (%)
PROPERTY_MEASURED: inhibition at 10 µM (%)

COMPOUND | UNITS_OF_MEASURE | RECORDED_VALUE
CCCCC(CC)Cn1cnc2c1c(=O)n(C)c(=O)n2C (stereo not shown) [GPS008661] | % | 0
Cc1nc2c(=O)[nH]c(=O)[nH]c2[nH]1 [GPN062] | % | 0
Cn1c(=O)c2c(ncn2C)n(C)c1=O [Caffeine, reference compound] | % | 0
CC(C)Cn1c(=O)n(C)c(=O)c2nc[nH]c21 [IBMX, reference compound] | % | 0

---

- STUDY_SYSTEM: CCL22 (Homo sapiens, UniProt O00626)
- Sequence (O00626 25-93): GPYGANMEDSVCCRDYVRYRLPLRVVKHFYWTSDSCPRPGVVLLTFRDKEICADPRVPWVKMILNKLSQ
- ASSAY_SUMMARY: Inhibition of calcium response induced by CCL22 in cells expressing CCR4 (Indo-1)
- Type: cell-based
- COND: molecules at 10 μm, read-out: Inhibition of calcium responses induced by CCL22 (%)
PROPERTY_MEASURED: inhibition at 10 µM (%)

COMPOUND | PROPERTY_MEASURED | RECORDED_VALUE
Cn1c(=O)c2[nH]cnc2n(C)c1=O [Theophylline, reference compound] | inhibition at 10 µM | 0
CCCCn1cnc2c1c(=O)n(C)c(=O)n2C [GPS008658] | inhibition at 10 µM | 32
C=CCn1cnc2c1c(=O)n(C)c(=O)n2C [GPS008660] | inhibition at 10 µM | 0
Cc1nc2c(=O)[nH]c(=O)[nH]c2[nH]1 [GPN062] | inhibition at 10 µM | 0

Attribution: patent US10828309B2
